Just for reference, PubChem BioAssay AID1963978 is where these values come from.

Test system: 616215-338-R-J1-PDC spheroids with HUVEC/MSC, viability;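 further: spheroids exposed to agents for seven days before the viability read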
Run Description: Anticancer human tumor 616215-338-R-J1-PDC patient-derived colon adenocarcinoma cell line growth inhibition [PI3K]
Condition Parameters: second compound 0.0316 µM; first compound 3.16 µM; hits give low values
I'd appreciate it if you could supply viability, T/C values for the items below.
Enter your answer as a number in %; do not include the unit.

**Query** What value of viability, T/C on 616215-338-R-J1-PDC spheroids with HUVEC/MSC, viability does CC1(C)CCC(CN2CCN(c3ccc(C(=O)NS(=O)(=O)c4ccc(NCC5CCOCC5)c([N+](=O)[O-])c4)c(Oc4cnc5[nH]ccc5c4)c3)CC2)=C(c2ccc(Cl)cc2)C1 + Cc1nc(NC(=O)N2CCCC2C(N)=O)sc1-c1ccnc(C(C)(C)C(F)(F)F)c1 have?
**Result** 86.4

**Query** What value of viability, T/C on 616215-338-R-J1-PDC spheroids with HUVEC/MSC, viability does CC1(C)CCC(Nc2ncc(C(F)(F)F)c(-c3c[nH]c4c(P(C)(C)=O)c(C#N)ccc34)n2)CN1 (stereo not given) + COc1c(OCCCN2CCOCC2)ccc2c3n(c(=NC(=O)c4cnc(N)nc4)nc12)CCN3 have?
**Result** 37.4

**Query** What value of viability, T/C on 616215-338-R-J1-PDC spheroids with HUVEC/MSC, viability does CC1(C)CCC(CN2CCN(c3ccc(C(=O)NS(=O)(=O)c4ccc(NCC5CCOCC5)c([N+](=O)[O-])c4)c(Oc4cnc5[nH]ccc5c4)c3)CC2)=C(c2ccc(Cl)cc2)C1 + COc1c(OCCCN2CCOCC2)ccc2c3n(c(=NC(=O)c4cnc(N)nc4)nc12)CCN3 have?
**Result** 93.1

**Query** What value of viability, T/C on 616215-338-R-J1-PDC spheroids with HUVEC/MSC, viability does CNC(=O)c1ccc(N2C(=S)N(c3ccc(C#N)c(C(F)(F)F)c3)C(=O)C2(C)C)cc1F + CC(Nc1ccc2c(c1)OCCn1cc(N3C(=O)OCC3C(F)F)nc1-2)C(N)=O have?
**Result** 99.8

**Query** What value of viability, T/C on 616215-338-R-J1-PDC spheroids with HUVEC/MSC, viability does Cn1nccc1Nc1nccc(-c2ccn(C(CO)c3ccc(Cl)c(F)c3)c(=O)c2)n1 (stereo not given) + CC(Nc1ccc2c(c1)OCCn1cc(N3C(=O)OCC3C(F)F)nc1-2)C(N)=O have?
**Result** 54.2
